Test system: tobacco leaves
Test: Effect of peptide infiltration on tobacco leaves (lesion size)
Assay type: in vivo
Details: D-amino acid lipopeptides; 50 µM, 100 µL infiltrated into mesophyll of tobacco leaves, lesion diameter, 48 h, at least three leaves; ± confidence interval
Where a SMILES comes first, the peptide text is derived from it. [ ]: non-standard residue; d: D form. The star is where a group is joined. Lauroyl = CCCCCCCCCCCC(=O)*; Butyryl = CCCC(=O)*
MEASURE: Size of the lesion (mm) 50 µM
Give bare numbers, in mm.

Worked examples follow.
Reported Size of the lesion (mm) 50 µM ( "CCCCCCCCCCCC(=O)NCCCC[C@H](NC(=O)[C@H](CC(C)C)NC(=O)[C@@H](NC(=O)[C@H](CCCCN)NC(=O)[C@H](CCCCN)NC(=O)[C@@H](Cc1ccccc1)NC(=O)[C@H](CC(C)C)NC(=O)[C@H](CCCCN)NC(=O)[C@H](CCCCN)NC(C)=O)[C@@H](C)CC)C(=O)N[C@@H](Cc1ccc(O)cc1)C(=O)N[C@@H](CC(C)C)C(N)=O" ) = 5

Record summary for CCCCCCCCCCCC(=O)NCCCC[C@H](NC(=O)[C@H](Cc1ccc(O)cc1)NC(=O)[C@H](CCCCN)NC(=O)[C@H](CC(C)C)NC(=O)[C@@H](NC(=O)[C@H](CCCCN)NC(=O)[C@H](CCCCN)NC(=O)[C@@H](Cc1ccccc1)NC(=O)[C@H](CC(C)C)NC(=O)[C@H](CCCCN)NC(=O)[C@H](CCCCN)NC(C)=O)[C@@H](C)CC)C(N)=O [BP476, Ac-KKLfKKILKYK(COC11H23)-NH2] (Ac-KKL[dF]KKILKYK(Lauroyl)-NH2) : reported Size of the lesion (mm) 50 µM = 3

Size of the lesion (mm) 50 µM recorded for this compound, CCCC(=O)NCCCC[C@H](NC(=O)[C@@H](NC(=O)[C@H](CCCCN)NC(=O)[C@H](CCCCN)NC(=O)[C@@H](Cc1ccccc1)NC(=O)[C@H](CC(C)C)NC(=O)[C@H](CCCCN)NC(=O)[C@H](CCCCN)NC(C)=O)[C@@H](C)CC)C(=O)N[C@@H](CCCCN)C(=O)N[C@@H](Cc1ccc(O)cc1)C(=O)N[C@@H](CC(C)C)C(N)=O [BP474, Ac-KKLfKKIK(COC3H7)KYL-NH2] (Ac-KKL[dF]KKIK(Butyryl)KYL-NH2) , is 0

Report Size of the lesion (mm) 50 µM for each item below.
1. CCCC(=O)NCCCC[C@H](NC(=O)[C@H](CC(C)C)NC(=O)[C@@H](NC(=O)[C@H](CCCCN)NC(=O)[C@H](CCCCN)NC(=O)[C@@H](Cc1ccccc1)NC(=O)[C@H](CC(C)C)NC(=O)[C@H](CCCCN)NC(=O)[C@H](CCCCN)NC(C)=O)[C@@H](C)CC)C(=O)N[C@@H](Cc1ccc(O)cc1)C(=O)N[C@@H](CC(C)C)C(N)=O
2. CCCCCCCCCCCC(=O)NCCCC[C@H](NC(=O)[C@H](CCCCN)NC(=O)[C@H](CCCCN)NC(C)=O)C(=O)N[C@H](Cc1ccccc1)C(=O)N[C@@H](CCCCN)C(=O)N[C@@H](CCCCN)C(=O)N[C@H](C(=O)N[C@@H](CC(C)C)C(=O)N[C@@H](CCCCN)C(=O)N[C@@H](Cc1ccc(O)cc1)C(=O)N[C@@H](CC(C)C)C(N)=O)[C@@H](C)CC [BP500, Ac-KKK(COC11H23)fKKILKYL-NH2] (Ac-KKK(Lauroyl)[dF]KKILKYL-NH2)
3. CCCCCC(=O)N[C@@H](CCCCN)C(=O)N[C@@H](CCCCN)C(=O)N[C@@H](CC(C)C)C(=O)N[C@H](Cc1ccccc1)C(=O)N[C@@H](CCCCN)C(=O)N[C@@H](CCCCN)C(=O)N[C@H](C(=O)N[C@@H](CC(C)C)C(=O)N[C@@H](CCCCN)C(=O)N[C@@H](Cc1ccc(O)cc1)C(=O)N[C@@H](CC(C)C)C(N)=O)[C@@H](C)CC [BP472, C5H11CO-KKLfKKILKYL-NH2]
4. CCCCCC(=O)NCCCC[C@@H](NC(=O)[C@H](CC(C)C)NC(=O)[C@H](CCCCN)NC(=O)[C@H](CCCCN)NC(C)=O)C(=O)N[C@@H](CCCCN)C(=O)N[C@@H](CCCCN)C(=O)N[C@H](C(=O)N[C@@H](CC(C)C)C(=O)N[C@@H](CCCCN)C(=O)N[C@@H](Cc1ccc(O)cc1)C(=O)N[C@@H](CC(C)C)C(N)=O)[C@@H](C)CC

[6, 3, 2, 0]

----------
System: tobacco leaves
Assay: Effect of peptide infiltration on tobacco leaves (lesion size)
Type: in vivo
Details: D-amino acid lipopeptides; 250 µM, 100 µL infiltrated into tobacco leaves, lesion diameter, 48 h, at least three leaves; ± confidence interval
Where a SMILES comes first, the peptide text is derived from it. [ ]: non-standard residue; d: D form. The star is where a group is joined. Lauroyl = CCCCCCCCCCCC(=O)*
I'd appreciate it if you could supply Size of the lesion (mm) 250 µM values for the items below.
One number for each entry, in mm.

Sure, the documented Size of the lesion (mm) 250 µM for "CCCC(=O)NCCCC[C@H](NC(=O)[C@@H](Cc1ccccc1)NC(=O)[C@H](CC(C)C)NC(=O)[C@H](CCCCN)NC(=O)[C@H](CCCCN)NC(C)=O)C(=O)N[C@@H](CCCCN)C(=O)N[C@H](C(=O)N[C@@H](CC(C)C)C(=O)N[C@@H](CCCCN)C(=O)N[C@@H](Cc1ccc(O)cc1)C(=O)N[C@@H](CC(C)C)C(N)=O)[C@@H](C)CC" is 6

Go through the items and report each one's Size of the lesion (mm) 250 µM.
1. CCCC(=O)NCCCC[C@H](NC(=O)[C@H](CCCCN)NC(C)=O)C(=O)N[C@@H](CC(C)C)C(=O)N[C@H](Cc1ccccc1)C(=O)N[C@@H](CCCCN)C(=O)N[C@@H](CCCCN)C(=O)N[C@H](C(=O)N[C@@H](CC(C)C)C(=O)N[C@@H](CCCCN)C(=O)N[C@@H](Cc1ccc(O)cc1)C(=O)N[C@@H](CC(C)C)C(N)=O)[C@@H](C)CC
2. CCCCCCCCCCCC(=O)NCCCC[C@H](NC(=O)[C@H](Cc1ccc(O)cc1)NC(=O)[C@H](CCCCN)NC(=O)[C@H](CC(C)C)NC(=O)[C@@H](NC(=O)[C@H](CCCCN)NC(=O)[C@H](CCCCN)NC(=O)[C@@H](Cc1ccccc1)NC(=O)[C@H](CC(C)C)NC(=O)[C@H](CCCCN)NC(=O)[C@H](CCCCN)NC(C)=O)[C@@H](C)CC)C(N)=O [BP476, Ac-KKLfKKILKYK(COC11H23)-NH2] (Ac-KKL[dF]KKILKYK(Lauroyl)-NH2)

1. 17
2. 5

----------
System: tobacco leaves
Experiment: Effect of peptide infiltration on tobacco leaves (lesion size)
Type: in vivo
Conditions: Table 2; 250 µM infiltrated into tobacco leaves; ± confidence interval
Where a SMILES comes first, the peptide text is derived from it. [ ]: non-standard residue; d: D form. The star is where a group is joined. Lauroyl = CCCCCCCCCCCC(=O)*; Hexanoyl = CCCCCC(=O)*
MEASURE: Size of the lesion (mm) 250 µM

As a guide, the following entries are already answered.
Summary for this molecule, CCCCCCCCCCCC(=O)NCCCC[C@H](NC(=O)[C@H](CCCCN)NC(=O)[C@H](CCCCN)NC(=O)[C@@H](Cc1ccccc1)NC(=O)[C@H](CC(C)C)NC(=O)[C@H](CCCCN)NC(=O)[C@H](CCCCN)NC(C)=O)C(=O)N[C@@H](CC(C)C)C(=O)N[C@@H](CCCCN)C(=O)N[C@@H](Cc1ccc(O)cc1)C(=O)N[C@@H](CC(C)C)C(N)=O [BP489, Ac-KKLfKKK(COC11H23)LKYL-NH2] (Ac-KKL[dF]KKK(Lauroyl)LKYL-NH2) : Size of the lesion (mm) 250 µM is 11 ± 1 mm

// Size of the lesion (mm) 250 µM lookup, molecule = CCCCCC(=O)N[C@@H](CCCCN)C(=O)N[C@@H](CCCCN)C(=O)N[C@@H](CC(C)C)C(=O)N[C@H](Cc1ccccc1)C(=O)N[C@@H](CCCCN)C(=O)N[C@@H](CCCCN)C(=O)N[C@H](C(=O)N[C@@H](CC(C)C)C(=O)N[C@@H](CCCCN)C(=O)N[C@@H](Cc1ccc(O)cc1)C(=O)N[C@@H](CC(C)C)C(N)=O)[C@@H](C)CC [BP472, C5H11CO-KKLfKKILKYL-NH2] , result: 4 ± 1 mm

// Size of the lesion (mm) 250 µM value for CCCCCC(=O)NCCCC[C@H](NC(=O)[C@H](Cc1ccc(O)cc1)NC(=O)[C@H](CCCCN)NC(=O)[C@H](CC(C)C)NC(=O)[C@@H](NC(=O)[C@H](CCCCN)NC(=O)[C@H](CCCCN)NC(=O)[C@@H](Cc1ccccc1)NC(=O)[C@H](CC(C)C)NC(=O)[C@H](CCCCN)NC(=O)[C@H](CCCCN)NC(C)=O)[C@@H](C)CC)C(N)=O [BP495, Ac-KKLfKKILKYK(COC5H11)-NH2] (Ac-KKL[dF]KKILKYK(Hexanoyl)-NH2) : 11 ± 2 mm

List reported Size of the lesion (mm) 250 µM for each of these molecules:
1. CCCCCCCCCCCC(=O)NCCCC[C@H](NC(=O)[C@@H](NC(=O)[C@H](CCCCN)NC(=O)[C@H](CCCCN)NC(=O)[C@@H](Cc1ccccc1)NC(=O)[C@H](CC(C)C)NC(=O)[C@H](CCCCN)NC(=O)[C@H](CCCCN)NC(C)=O)[C@@H](C)CC)C(=O)N[C@@H](CCCCN)C(=O)N[C@@H](Cc1ccc(O)cc1)C(=O)N[C@@H](CC(C)C)C(N)=O [BP490, Ac-KKLfKKIK(COC11H23)KYL-NH2] (Ac-KKL[dF]KKIK(Lauroyl)KYL-NH2)
2. CCCCCC(=O)NCCCC[C@H](NC(=O)[C@H](CCCCN)NC(=O)[C@H](CCCCN)NC(=O)[C@@H](Cc1ccccc1)NC(=O)[C@H](CC(C)C)NC(=O)[C@H](CCCCN)NC(=O)[C@H](CCCCN)NC(C)=O)C(=O)N[C@@H](CC(C)C)C(=O)N[C@@H](CCCCN)C(=O)N[C@@H](Cc1ccc(O)cc1)C(=O)N[C@@H](CC(C)C)C(N)=O [BP494, Ac-KKLfKKK(COC5H11)LKYL-NH2] (Ac-KKL[dF]KKK(Hexanoyl)LKYL-NH2)

["11 ±3 mm", "8 ± 1 mm"]
